Data origin, for the record: patent US20090305338A1

Give measured % of embryogenesis for each item. Keep answers brief.
test system: Veratrum californicum embryos; test: Embryogenic callus induction from mature embryos (% of embryogenesis); assay type: cell-based; conditions: medium mMS; data from 5 replicates
Return type: number; implicit unit %.

// returns reported % of embryogenesis for input Nc1c(Cl)c(Cl)nc(C(=O)O)c1Cl
81.33

// returns reported % of embryogenesis for input O=C(O)COc1ccc(Cl)cc1Cl
55.32

// returns reported % of embryogenesis for input O=C(O)Cc1cccc2ccccc12
74.93

// returns reported % of embryogenesis for input COc1c(Cl)ccc(Cl)c1C(=O)O
60.79

----------
tested on: Veratrum californicum embryos; test: Embryogenic callus induction from mature embryos (% of embryogenesis); format: cell-based; details: medium AA; data from 5 replicates
METRIC: % of embryogenesis (%)
Return type: number; implicit unit %.

// returns reported % of embryogenesis for input COc1c(Cl)ccc(Cl)c1C(=O)O
51.24

// returns reported % of embryogenesis for input O=C(O)COc1ccc(Cl)cc1Cl
43.43

// returns reported % of embryogenesis for input Nc1c(Cl)c(Cl)nc(C(=O)O)c1Cl
59.75

// returns reported % of embryogenesis for input O=C(O)Cc1cccc2ccccc12
62.04

----------
Give measured % of embryogenesis for each item. Keep answers brief.
test system: Veratrum californicum embryos; assay: Embryogenic callus induction from mature embryos (% of embryogenesis); format: cell-based; settings: medium R2M; data from 5 replicates
Return type: number; implicit unit %.

// returns reported % of embryogenesis for input COc1c(Cl)ccc(Cl)c1C(=O)O
58.67

// returns reported % of embryogenesis for input O=C(O)Cc1cccc2ccccc12
73.95

// returns reported % of embryogenesis for input Nc1c(Cl)c(Cl)nc(C(=O)O)c1Cl
75.40

// returns reported % of embryogenesis for input O=C(O)COc1ccc(Cl)cc1Cl
58.85
